target or system: Neuraminidase (Influenza A virus, UniProt B4URF0)
value type: IC50 (nM)

In [3]: df
Out[3]:
                                   molecule  value_type  observed_measurement
0  CC(=O)N[C@@H]1[C@@H](N)CC(C(=O)O)=C[C@H]1OC1CCSC1 (stereo partly specified)        IC50                   2.9

* * *

protocol description: Oral bioavailability in rat
Type: ADME, organism-based
stated conditions: in vivo
value type: bioavailability (%)

In [3]: df
Out[3]:
                                   compound       value_type  observed_measurement
0  CCC(CC)[C@H](NC(C)=O)[C@@H]1[C@H](O)[C@@H](C(=O)O)C[C@H]1NC(=N)N [PERAMIVIR ANHYDROUS]  bioavailability                   2.5

* * *

protocol description: Oral bioavailability in ferret at 10 mg/kg measured upto 24 hrs by LC-MS/MS assay
Format: ADME, organism-based, Mustela putorius furo
stated conditions: in vivo
value type: bioavailability (%)

>>> df
                                   compound       value_type  observed_measurement
0  CCCCCCCC(=O)OC[C@@H](O)[C@@H](OC)[C@@H]1OC(C(=O)O)=C[C@H](NC(=N)N)[C@H]1NC(C)=O [LANINAMIVIR OCTANOATE]  bioavailability                   3.5

* * *

protocol description: AUC in rat at 20 mg/kg
Format: ADME, organism-based
Set-up: dose 20 mg/kg
stated conditions: in vivo
value type: AUC (µg·h/mL)

>>> print(df.to_string())
                               given_smiles  unit_tag  observed_measurement
0  CCC(CC)O[C@@H]1C=C(C(=O)O)C[C@H](NCc2ccc(Sc3ccccc3)cc2)[C@H]1NC(C)=O   µg·h/mL                   1.5

* * *

protocol description: AUC in rat at 10 mg/kg
Type: ADME, organism-based
Parameters: dose 10 mg/kg
stated conditions: in vivo
value type: AUC (ng·h/mL)

                                   molecule  value_type  observed_measurement
0  CCC(CC)O[C@@H]1C=C(C(=O)O)CC(N)[C@H]1NC(C)=O (stereo partly specified)         AUC                   300

* * *

Below, each entry is listed with its recorded EC50.
System: Influenza A virus
protocol description: Antiviral activity against influenza A virus H5N1 infected in dog MDCK cells assessed as viral growth inhibition
Assay type: functional, organism-based

molecule	unit tag	EC50
CCC(CC)O[C@@H]1C=C(C(=O)O)C[C@H](NC(=O)COCCOCCOCCOCCN[C@H](C(=O)N2C[C@H](O)CC2C(=O)NCc2ccc(-c3scnc3C)cc2)C(C)(C)C)[C@H]1NC(C)=O (some centres not stated)	nM	290
CCC(CC)O[C@@H]1C=C(C(=O)O)CC(N)[C@H]1NC(C)=O (some centres not stated)	nM	2300

Provenance of the data: ChEMBL document CHEMBL5331047
